reported.property: melting point

Req: Recorded melting point for "N=C(N)Nc1ccc(C(=O)Nc2ncc(Cl)[nH]2)cc1" , please?
Resp: 263 to 265 °C

Req: GET /values?readout=melting point&item= "Nc1nc(N)nc(Cc2nc3ccccc3n2-c2ccccc2)n1"
Resp: 337 to 340 °C

Req: Need melting point of "Cn1cc(-c2cc(-c3ccncc3)ccn2)n(-c2ccc(C(C)(C)C#N)cc2)c1=O" , thanks.
Resp: 226 °C

Req: Recorded melting point for "CCOC(=O)/C=C/c1ccc(C#Cc2ccc3c(c2)C(C)(C)CCC3(C)C)cc1" , please?
Resp: 116 to 118 °C

Req: Fill in the blank: the reported melting point of "CC(C)(CO)Cc1ccccc1" is ____.
Resp: 34 to 36 °C

Req: Query: melting point; subject: COC(=O)C(CCSC)NC(=O)c1ccc([N+](=O)[O-])cc1-c1cc(C)cc(C)c1 (stereo not given)
Resp: 122 to 124 °C

Req: // lookup melting point for "CS(=O)(=O)c1ccc(-c2cc(=O)n(CC3CC3)nc2-c2ccc(F)cc2)cc1"
Resp: 130 to 132 °C

Req: Using the record for "CCOC(=O)c1cnn2c(-c3cccc(C)n3)ccnc12" , report its melting point.
Resp: 135 to 137 °C

Req: Requested read-out: melting point. Entry: "CCOC(=O)c1nccc2c(C)c3c(cc12)c1cc(OC)ccc1n3CC"
Resp: 149 °C

Req: What does the record list as melting point for "O=C(O)CNC(=O)c1cn2nc(NCCCN3CCC(OC(c4ccccc4)c4ccccc4)CC3)ccc2n1" ?
Resp: 171 °C

Req: Recorded melting point for "O=C(CN1C(=O)c2ccccc2C1=O)Nc1ccccc1OC(F)(F)F" , please?
Resp: 192 °C

Req: Form field: reported melting point of "O=c1c2ccccc2ncn1NC(=S)Nc1ccc(Br)cc1"
Resp: 189 to 190 °C

Req: Sample Cc1ccc(C(=O)NC(C)NC(=S)Nc2cccc([N+](=O)[O-])c2)cc1 (stereo not given) — what was its melting point?
Resp: 172 to 175 °C

Req: Recorded melting point of "CCN1C(=O)C(C)(C)C(=O)N(C)c2cc(CN(CCn3ccc4oc(C)cc4c3=O)Cc3cccnc3C#N)ccc21" , please.
Resp: 114 to 118 °C

Req: Suppose we examine the compound "Cc1ccc(-c2nnc(N3CCC(C)CC3)nc2-c2ccc(C)cc2)cc1" ; what melting point value has been reported?
Resp: 140 to 142 °C

Req: Return reported melting point; argument: "CC(C)(C)CC(C)(C)c1cc(N=Nc2ccc(-c3ccccc3)cc2[N+](=O)[O-])c(O)c(C(C)(C)c2ccccc2)c1"
Resp: 176 to 179 °C

Req: Field request: melting point | item: "CC1(C)CCC(C)(C)c2cc(C=O)c(F)cc21"
Resp: 119 to 120 °C

Req: Need melting point of "CCC(=NNc1ccc(-c2ccc(=O)n(C)n2)cc1)c1ccc(O)cc1O" , thanks.
Resp: 225 to 233 °C

Req: Form field: reported melting point of "Cc1nccn1-c1ccc(-c2cnc([C@H](Cc3ccccn3)N(C=O)c3cc4cc(Cl)ccc4o3)n2C)cc1"
Resp: 159 to 161 °C

Req: Entry under review: "O=C1C(=CO)CSc2c(Cl)cccc21" . Reported melting point?
Resp: 97 to 99 °C

Req: Any idea what melting point was measured for C=CCOc1cc(F)c(C#N)c(OC(C(=O)OC)c2ccccc2C)c1 (racemic) ?
Resp: 100 to 102 °C

Req: Given the entry "COc1cc2ncc(C#N)c(Nc3ccc(Sc4ccccc4)c(Cl)c3)c2cc1OC" , report its measured melting point.
Resp: 124 to 130 °C

Req: Any idea what its melting point is? The compound is "CN1CCNC1=C(Br)[N+](=O)[O-]"
Resp: 97 °C
